run-parameters: in ethyl acetate, 313.15 K
measured-attribute: solubility (mole fraction)
Format: numeric value only, no unit, no commentary.

For record CC(=NC#N)N(C)Cc1ccc(Cl)nc1 the listed solubility (mole fraction) is 0.039

====

run-parameters: in isobutanol, 308.15 K
measured-attribute: solubility (mole fraction)
Format: numeric value only, no unit, no commentary.

For record CC(=NC#N)N(C)Cc1ccc(Cl)nc1 the listed solubility (mole fraction) is 0.00696

====

run-parameters: in methanol, 288.15 K
measured-attribute: solubility (mole fraction)

For record CC(=NC#N)N(C)Cc1ccc(Cl)nc1 the listed solubility (mole fraction) is 0.0273

====

run-parameters: in ethanol, 313.15 K
measured-attribute: solubility (mole fraction)
Format: numeric value only, no unit, no commentary.

For record CC(=NC#N)N(C)Cc1ccc(Cl)nc1 the listed solubility (mole fraction) is 0.05

====

run-parameters: in ethyl acetate, 278.15 K
measured-attribute: solubility (mole fraction)
Format: numeric value only, no unit, no commentary.

For record CC(=NC#N)N(C)Cc1ccc(Cl)nc1 the listed solubility (mole fraction) is 0.0106

====

run-parameters: in water, 318.15 K
measured-attribute: solubility (mole fraction)
Format: numeric value only, no unit, no commentary.

For record CC(=NC#N)N(C)Cc1ccc(Cl)nc1 the listed solubility (mole fraction) is 0.000911

====

run-parameters: in n-butanol, 288.15 K
measured-attribute: solubility (mole fraction)
Format: numeric value only, no unit, no commentary.

For record CC(=NC#N)N(C)Cc1ccc(Cl)nc1 the listed solubility (mole fraction) is 0.00202

====

run-parameters: in DMSO, 313.15 K
measured-attribute: solubility (mole fraction)
Format: numeric value only, no unit, no commentary.

For record CC(=NC#N)N(C)Cc1ccc(Cl)nc1 the listed solubility (mole fraction) is 0.608

====

run-parameters: in isobutanol, 318.15 K
measured-attribute: solubility (mole fraction)
Format: numeric value only, no unit, no commentary.

For record CC(=NC#N)N(C)Cc1ccc(Cl)nc1 the listed solubility (mole fraction) is 0.00932

====

run-parameters: in isopropanol, 308.15 K
measured-attribute: solubility (mole fraction)
Format: numeric value only, no unit, no commentary.

For record CC(=NC#N)N(C)Cc1ccc(Cl)nc1 the listed solubility (mole fraction) is 0.0166

====

run-parameters: in methanol, 278.15 K
measured-attribute: solubility (mole fraction)

For record CC(=NC#N)N(C)Cc1ccc(Cl)nc1 the listed solubility (mole fraction) is 0.0199

====

run-parameters: in water, 288.15 K
measured-attribute: solubility (mole fraction)

For record CC(=NC#N)N(C)Cc1ccc(Cl)nc1 the listed solubility (mole fraction) is 0.000213

====

run-parameters: in 1,4-dioxane, 293.15 K
measured-attribute: solubility (mole fraction)
Format: numeric value only, no unit, no commentary.

For record CC(=NC#N)N(C)Cc1ccc(Cl)nc1 the listed solubility (mole fraction) is 0.0799

====

run-parameters: in water, 293.15 K
measured-attribute: solubility (mole fraction)
Format: numeric value only, no unit, no commentary.

For record CC(=NC#N)N(C)Cc1ccc(Cl)nc1 the listed solubility (mole fraction) is 0.000269

====

run-parameters: in ethyl acetate, 283.15 K
measured-attribute: solubility (mole fraction)
Format: numeric value only, no unit, no commentary.

For record CC(=NC#N)N(C)Cc1ccc(Cl)nc1 the listed solubility (mole fraction) is 0.0128

====

run-parameters: in methanol, 298.15 K
measured-attribute: solubility (mole fraction)
Format: numeric value only, no unit, no commentary.

For record CC(=NC#N)N(C)Cc1ccc(Cl)nc1 the listed solubility (mole fraction) is 0.0382

====

run-parameters: in n-butanol, 318.15 K
measured-attribute: solubility (mole fraction)
Format: numeric value only, no unit, no commentary.

For record CC(=NC#N)N(C)Cc1ccc(Cl)nc1 the listed solubility (mole fraction) is 0.00507

====

run-parameters: in DMSO, 303.15 K
measured-attribute: solubility (mole fraction)
Format: numeric value only, no unit, no commentary.

For record CC(=NC#N)N(C)Cc1ccc(Cl)nc1 the listed solubility (mole fraction) is 0.481

====

run-parameters: in ethylene glycol, 318.15 K
measured-attribute: solubility (mole fraction)

For record CC(=NC#N)N(C)Cc1ccc(Cl)nc1 the listed solubility (mole fraction) is 0.0367

====

run-parameters: in ethylene glycol, 298.15 K
measured-attribute: solubility (mole fraction)

For record CC(=NC#N)N(C)Cc1ccc(Cl)nc1 the listed solubility (mole fraction) is 0.0194

====

run-parameters: in ethylene glycol, 303.15 K
measured-attribute: solubility (mole fraction)
Format: numeric value only, no unit, no commentary.

For record CC(=NC#N)N(C)Cc1ccc(Cl)nc1 the listed solubility (mole fraction) is 0.023

====

run-parameters: in 1,4-dioxane, 298.15 K
measured-attribute: solubility (mole fraction)
Format: numeric value only, no unit, no commentary.

For record CC(=NC#N)N(C)Cc1ccc(Cl)nc1 the listed solubility (mole fraction) is 0.0941

====

run-parameters: in methanol, 313.15 K
measured-attribute: solubility (mole fraction)

For record CC(=NC#N)N(C)Cc1ccc(Cl)nc1 the listed solubility (mole fraction) is 0.0619

====

run-parameters: in isobutanol, 303.15 K
measured-attribute: solubility (mole fraction)
Format: numeric value only, no unit, no commentary.

For record CC(=NC#N)N(C)Cc1ccc(Cl)nc1 the listed solubility (mole fraction) is 0.00613

====

run-parameters: in isobutanol, 288.15 K
measured-attribute: solubility (mole fraction)
Format: numeric value only, no unit, no commentary.

For record CC(=NC#N)N(C)Cc1ccc(Cl)nc1 the listed solubility (mole fraction) is 0.0037

====

run-parameters: in water, 313.15 K
measured-attribute: solubility (mole fraction)
Format: numeric value only, no unit, no commentary.

For record CC(=NC#N)N(C)Cc1ccc(Cl)nc1 the listed solubility (mole fraction) is 0.000721

====

run-parameters: in ethyl acetate, 298.15 K
measured-attribute: solubility (mole fraction)
Format: numeric value only, no unit, no commentary.

For record CC(=NC#N)N(C)Cc1ccc(Cl)nc1 the listed solubility (mole fraction) is 0.0233

====

run-parameters: in methanol, 303.15 K
measured-attribute: solubility (mole fraction)
Format: numeric value only, no unit, no commentary.

For record CC(=NC#N)N(C)Cc1ccc(Cl)nc1 the listed solubility (mole fraction) is 0.0452

====

run-parameters: in isopropanol, 313.15 K
measured-attribute: solubility (mole fraction)
Format: numeric value only, no unit, no commentary.

For record CC(=NC#N)N(C)Cc1ccc(Cl)nc1 the listed solubility (mole fraction) is 0.0195

====

run-parameters: in ethyl acetate, 308.15 K
measured-attribute: solubility (mole fraction)
Format: numeric value only, no unit, no commentary.

For record CC(=NC#N)N(C)Cc1ccc(Cl)nc1 the listed solubility (mole fraction) is 0.0332

====

run-parameters: in ethylene glycol, 308.15 K
measured-attribute: solubility (mole fraction)
Format: numeric value only, no unit, no commentary.

For record CC(=NC#N)N(C)Cc1ccc(Cl)nc1 the listed solubility (mole fraction) is 0.0269

====

run-parameters: in acetone, 303.15 K
measured-attribute: solubility (mole fraction)
Format: numeric value only, no unit, no commentary.

For record CC(=NC#N)N(C)Cc1ccc(Cl)nc1 the listed solubility (mole fraction) is 0.226

====

run-parameters: in 1,4-dioxane, 303.15 K
measured-attribute: solubility (mole fraction)

For record CC(=NC#N)N(C)Cc1ccc(Cl)nc1 the listed solubility (mole fraction) is 0.113

====

run-parameters: in DMF, 293.15 K
measured-attribute: solubility (mole fraction)
Format: numeric value only, no unit, no commentary.

For record CC(=NC#N)N(C)Cc1ccc(Cl)nc1 the listed solubility (mole fraction) is 0.269

====

run-parameters: in DMF, 298.15 K
measured-attribute: solubility (mole fraction)
Format: numeric value only, no unit, no commentary.

For record CC(=NC#N)N(C)Cc1ccc(Cl)nc1 the listed solubility (mole fraction) is 0.318

====

run-parameters: in methanol, 283.15 K
measured-attribute: solubility (mole fraction)

For record CC(=NC#N)N(C)Cc1ccc(Cl)nc1 the listed solubility (mole fraction) is 0.0227

====

run-parameters: in methanol, 308.15 K
measured-attribute: solubility (mole fraction)
Format: numeric value only, no unit, no commentary.

For record CC(=NC#N)N(C)Cc1ccc(Cl)nc1 the listed solubility (mole fraction) is 0.0532

====

run-parameters: in NMP, 278.15 K
measured-attribute: solubility (mole fraction)
Format: numeric value only, no unit, no commentary.

For record CC(=NC#N)N(C)Cc1ccc(Cl)nc1 the listed solubility (mole fraction) is 0.197

====

run-parameters: in water, 278.15 K
measured-attribute: solubility (mole fraction)
Format: numeric value only, no unit, no commentary.

For record CC(=NC#N)N(C)Cc1ccc(Cl)nc1 the listed solubility (mole fraction) is 0.000146

====

run-parameters: in water, 303.15 K
measured-attribute: solubility (mole fraction)
Format: numeric value only, no unit, no commentary.

For record CC(=NC#N)N(C)Cc1ccc(Cl)nc1 the listed solubility (mole fraction) is 0.00045
